Origin of values: ChEMBL document CHEMBL1136043

- System: NCI-H460
- experimentNotes: Concentration required for growth inhibition of human lung carcinoma cell line NCI-H460
- Format: functional
measurementType: GI50

1) C=C(CCC(C)C)COC(=O)[C@@H](O)C/C=C\C[C@@H]1O[C@@H]2/C=C/C/C=C/C(C)=C\[C@H]3O[C@@H](C/C=C/C=C/C(=O)O[C@H](C2)[C@@]1(C)CO)C[C@H](O)[C@H]3C :: 0.009 µM

Now look at this entry.
Ask | Specify measured GI50 for C=C(CCC(C)C)COC(=O)[C@H](O)C/C=C/C[C@@H]1O[C@@H]2/C=C/C/C=C/C(C)=C\[C@H]3O[C@@H](C/C=C/C=C/C(=O)O[C@H](C2)[C@@]1(C)CO)C[C@H](O)[C@H]3C .
Reply | 0.04 µM

* * *

// reported GI50 for each item listed
- Tested on: NCI-H460
- experimentNotes: Concentration required for growth inhibition of human lung carcinoma cell line NCI-H460
- Format: functional
Please reply with the bare figure in nM and do not write the unit itself.

Known results for molecules:
1. C=C(CCC(C)C)COC(=O)[C@@H](O)C/C=C\C[C@H]1O[C@H]2/C=C/C/C=C/C(C)=C\[C@@H]3O[C@H](C/C=C/C=C/C(=O)O[C@@H](C2)[C@]1(C)CO)C[C@@H](O)[C@@H]3C :: 3000
2. C=C(CCC(C)C)COC(=O)[C@@H](O)C/C=C\C[C@@H]1O[C@@H]2/C=C\C/C=C/C(C)=C\[C@H]3O[C@@H](C/C=C/C=C/C(=O)O[C@H](C2)[C@@]1(C)CO)C[C@H](O)[C@H]3C :: 5000

Now look at this entry.
Ask | Specify measured GI50 for C=C(CCC(C)C)COC(=O)[C@@H](O)C/C=C/C[C@@H]1O[C@@H]2/C=C/C/C=C/C(C)=C\[C@H]3O[C@@H](C/C=C/C=C/C(=O)O[C@H](C2)[C@@]1(C)CO)C[C@H](O)[C@H]3C .
Reply | 100
